EXPERIMENTAL SYSTEM: D(1A) dopamine receptor (Rattus norvegicus, UniProt P18901)
Sequence (P18901 whole entry): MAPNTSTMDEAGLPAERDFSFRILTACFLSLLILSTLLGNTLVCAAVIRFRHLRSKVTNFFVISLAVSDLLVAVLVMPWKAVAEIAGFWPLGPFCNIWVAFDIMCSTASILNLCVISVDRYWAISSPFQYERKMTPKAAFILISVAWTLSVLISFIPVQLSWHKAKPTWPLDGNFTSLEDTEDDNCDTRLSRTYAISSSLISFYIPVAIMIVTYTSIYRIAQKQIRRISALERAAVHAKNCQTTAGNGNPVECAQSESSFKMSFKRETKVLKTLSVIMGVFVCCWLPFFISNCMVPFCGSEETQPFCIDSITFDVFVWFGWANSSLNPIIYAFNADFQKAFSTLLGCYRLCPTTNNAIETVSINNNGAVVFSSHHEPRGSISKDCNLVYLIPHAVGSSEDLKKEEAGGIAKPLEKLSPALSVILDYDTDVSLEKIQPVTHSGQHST
EXPERIMENT: Binding affinity towards D1 receptor using [3H]-SCH- 23390 in rat striatal tissue
ASSAY METRIC: Ki (nM)
State the answer as a number, implicitly in nM.

Quote Ki with test system D(1A) dopamine receptor (Rattus norvegicus, UniProt P18901) for COc1ccccc1N1CCN(CCCCNC(=O)c2ccc(-c3ccc(C(C)=O)cc3)cc2)CC1
398

Quote Ki with test system D(1A) dopamine receptor (Rattus norvegicus, UniProt P18901) for COc1ccccc1N1CCN(CCCCNC(=O)c2ccc(-c3ccc(S(C)(=O)=O)cc3)cc2)CC1
158

Quote Ki with test system D(1A) dopamine receptor (Rattus norvegicus, UniProt P18901) for COc1ccccc1N1CCN(CCCCNC(=O)c2ccc(-c3ccc(N)cc3)cc2)CC1
100

Quote Ki with test system D(1A) dopamine receptor (Rattus norvegicus, UniProt P18901) for COc1ccccc1N1CCN(CCCCNC(=O)c2ccc(Br)cc2)CC1
501

* * *

EXPERIMENTAL SYSTEM: 5-hydroxytryptamine receptor 1A (Rattus norvegicus)
Sequence (P19327 whole entry): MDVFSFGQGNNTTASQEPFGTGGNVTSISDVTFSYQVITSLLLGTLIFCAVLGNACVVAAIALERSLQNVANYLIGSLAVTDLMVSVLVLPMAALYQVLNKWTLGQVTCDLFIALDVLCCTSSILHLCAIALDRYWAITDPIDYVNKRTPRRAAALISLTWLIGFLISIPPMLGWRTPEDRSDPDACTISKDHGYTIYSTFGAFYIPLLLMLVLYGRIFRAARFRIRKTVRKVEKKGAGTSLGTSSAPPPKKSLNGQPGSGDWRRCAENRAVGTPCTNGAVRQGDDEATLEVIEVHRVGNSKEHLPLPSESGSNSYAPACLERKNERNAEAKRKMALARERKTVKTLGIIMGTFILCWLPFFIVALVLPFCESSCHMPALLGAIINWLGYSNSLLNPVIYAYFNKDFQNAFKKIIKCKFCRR
ASSAY METRIC: pKi
Remember, pKi is on a log scale: it is -log10 of the molar concentration.

Recall and state the measured pKi for COc1ccccc1N1CCN(CCCCNC(=O)c2ccc(Br)cc2)CC1 .
7.90

Recall and state the measured pKi for O=C(NCCCCN1CCN(c2ccccc2)CC1)c1ccc(Br)cc1 .
6.90

Recall and state the measured pKi for COc1ccc(OC)c(N2CCN(CCCCNC(=O)c3ccc(Br)cc3)CC2)c1 .
6.60

Recall and state the measured pKi for COc1ccccc1N1CCN(CCCCNC(=O)c2ccc(-c3ccc(C(C)=O)cc3)cc2)CC1 .
8.50

Recall and state the measured pKi for COc1ccccc1N1CCN(CCCCNC(=O)c2ccc(-c3ccc(S(C)(=O)=O)cc3)cc2)CC1 .
7.70
